biological target: Histamine H4 receptor (Rattus norvegicus); experiment: Agonist activity at rat histamine H4 receptor expressed in HEK293 cells coexpressing Gqi5 protein assessed as calcium flux by FLIPR assay; format: functional, cell-based
Sequence (Q91ZY1 whole entry): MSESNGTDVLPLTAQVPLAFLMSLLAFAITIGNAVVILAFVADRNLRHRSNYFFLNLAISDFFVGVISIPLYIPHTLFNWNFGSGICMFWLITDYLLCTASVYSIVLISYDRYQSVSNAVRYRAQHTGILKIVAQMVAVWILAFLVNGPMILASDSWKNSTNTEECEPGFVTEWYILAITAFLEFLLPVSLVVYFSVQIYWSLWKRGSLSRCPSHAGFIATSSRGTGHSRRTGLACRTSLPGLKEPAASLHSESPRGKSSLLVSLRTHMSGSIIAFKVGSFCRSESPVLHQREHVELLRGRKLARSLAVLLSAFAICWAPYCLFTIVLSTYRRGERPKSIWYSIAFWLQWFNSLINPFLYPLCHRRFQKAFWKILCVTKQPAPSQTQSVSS
pEC50: −log10 of the molar value.
Dear colleague, classification is by pEC50, with ranges listed here: range 1: < 6; range 2: ≥ 6 and < 7; range 3: ≥ 7

Task: Form field 'band' for Cc1c(-c2ccc(C#N)cc2)nc(N)nc1N1CCN(C)CC1
Result: range 3

Task: Do the same for CN1CCN(c2cc(N3CCC(N(C)C)C3)nc(N)n2)CC1 (configuration not stated) please
Result: range 1

Task: Do the same for CN1CCN(c2cc(-c3ccc(C#N)cc3)nc(N)n2)CC1 please
Result: range 3

Task: Do the same for CN1CCN(c2cc(-c3ccc4ccccc4c3)nc(N)n2)CC1 please
Result: range 2

Task: Do the same for CN1CCC(c2cc(C(C)(C)C)nc(N)n2)CC1 please
Result: range 1

Task: Do the same for CN1CCN(c2cc(-c3ccc(F)nc3F)nc(N)n2)CC1 please
Result: range 3

Task: Do the same for CN1CCN(c2cc(-n3ccccc3=O)nc(N)n2)CC1 please
Result: range 1

Task: Do the same for COc1ccccc1-c1cc(N2CCN(C)CC2)nc(N)n1 please
Result: range 3

Task: Do the same for COc1cc(N2CCN(C)CC2)nc(N)n1 please
Result: range 1

Task: Do the same for N#Cc1ccc(-c2cc(N3CCNCC3)nc(N)n2)cc1 please
Result: range 2

Task: Do the same for CN1CCN(c2cc(N3CCOCC3)nc(N)n2)CC1 please
Result: range 2

Task: Do the same for CNc1nc(N2CCN(C)CC2)cc(C(C)(C)C)n1 please
Result: range 1

Task: Do the same for CN1CCN(c2cc(N(C)C)nc(N)n2)CC1 please
Result: range 1

Task: Do the same for CN1CCN(c2nc(N)nc(C(C)(C)C)n2)CC1 please
Result: range 2

====

molecular target: Histamine H4 receptor (Rattus norvegicus); test: Agonist activity at rat histamine H4 receptor expressed in HEK293 cells coexpressing Gqi5 protein assessed as calcium flux by FLIPR assay; assay type: functional, cell-based
ASSAY METRIC: log10(EC50) (log10 of the value in nM)
Annotation: log10 of EC50, nM basis.

Task: Given the entry Cc1cc(N2CCN(C)CC2)nc(N)n1 , report its measured log10(EC50).
Result: 2.56

Task: Do the same for COc1nc(N2CCN(C)CC2)cc(C(C)(C)C)n1 please
Result: 3.67

Task: Do the same for CCN1CCN(c2cc(C(C)(C)C)nc(N)n2)CC1 please
Result: 2.39

Task: Do the same for CN1CCN(c2cc(I)nc(N)n2)CC1 please
Result: 3.31

Task: Do the same for CN1CCN(c2nc(N)ncc2N)CC1 please
Result: 1.63

Task: Do the same for CN1CCN(c2cc(C(C)(C)C)nc(O)n2)CC1 please
Result: 4.36

Task: Do the same for CN1CCN(c2cc(N)nc(C(C)(C)C)n2)CC1 please
Result: 3.67

====

biological target: Histamine H4 receptor (Rattus norvegicus); assay: Agonist activity at rat histamine H4 receptor expressed in HEK293 cells coexpressing Gqi5 protein assessed as calcium flux by FLIPR assay; assay type: functional, cell-based
Provide the recorded EC50 for the entries that follow.
Write the number in nM without appending the unit.

Task: Given the entry COc1ncccc1-c1cc(N2CCN(C)CC2)nc(N)n1 , report its measured EC50.
Result: 93.3

Task: Do the same for Cc1cnc(N)nc1N1CCN(C)CC1 please
Result: 66.1

Task: Do the same for CN1CCN(c2cc(C(C)(C)C)nc(N)n2)CC1 please
Result: 67.6
